species: Cavia porcellus; assay: Antagonist activity at muscarinic M4 receptor in guinea pig lung assessed as effect on muscle contraction up to 10 uM; assay type: functional
Calls of active or inactive are those of the source. The calls are words filed in the database; no cut-off is given here.
reportedEndpoint: pKb

CC1(C)OC[C@@H](C[N+](C)(C)C)OC1(C)C.[I-] : inactive
C[C@@H]1OC[C@@H](C[N+](C)(C)C)O[C@@H]1C.[I-] (relative stereo) : inactive
C[C@@H]1O[C@H](C[N+](C)(C)C)COC1(C)C.[I-] (relative stereo) : inactive
C[C@@H]1OC[C@@H](C[N+](C)(C)C)OC1(C)C.[I-] (relative stereo) : inactive

Shifting focus to the compound that follows.
Exercise: Give the reported pKb for this compound. C[C@H]1O[C@H](C[N+](C)(C)C)COC1(C)C (relative stereo)
Key: inactive

###

Target: Muscarinic acetylcholine receptor M5 (Homo sapiens, UniProt P08912)
Sequence (P08912 whole entry): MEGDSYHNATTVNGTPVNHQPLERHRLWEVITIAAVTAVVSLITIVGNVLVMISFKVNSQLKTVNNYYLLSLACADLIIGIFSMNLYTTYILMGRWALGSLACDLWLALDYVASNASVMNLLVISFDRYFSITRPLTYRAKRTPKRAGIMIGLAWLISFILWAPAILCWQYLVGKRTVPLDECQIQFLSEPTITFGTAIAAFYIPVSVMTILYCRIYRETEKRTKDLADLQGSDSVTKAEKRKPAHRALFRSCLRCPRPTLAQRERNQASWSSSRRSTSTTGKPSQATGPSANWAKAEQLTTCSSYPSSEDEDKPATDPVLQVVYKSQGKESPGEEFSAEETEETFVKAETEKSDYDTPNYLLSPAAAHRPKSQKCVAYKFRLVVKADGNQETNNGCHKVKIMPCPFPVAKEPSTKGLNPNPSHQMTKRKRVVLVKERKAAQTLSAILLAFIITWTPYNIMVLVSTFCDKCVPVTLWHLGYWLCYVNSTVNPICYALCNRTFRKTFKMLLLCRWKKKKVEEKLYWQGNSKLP
Would you kindly list Ki for each of these compounds?
Respond numerically; units are µM and should not be typed.

Exercise: Give the reported Ki for this compound. "CC1(C)OC[C@@H](C[N+](C)(C)C)OC1(C)C.[I-]"
Key: 66.1

Exercise: Give the reported Ki for this compound. C[C@@H]1O[C@H](C[N+](C)(C)C)CO[C@@H]1C.[I-] (relative stereo)
Key: 97.7

Exercise: Give the reported Ki for this compound. C[C@H]1COC[C@@H](C[N+](C)(C)C)O1.[I-] (relative stereo)
Key: 7.76

Exercise: Give the reported Ki for this compound. "CC1(C)COC[C@@H](C[N+](C)(C)C)O1.[I-]"
Key: 28.2

Exercise: Give the reported Ki for this compound. C[C@@H]1OC[C@@H](C[N+](C)(C)C)O[C@H]1C.[I-] (relative stereo)
Key: 15.5

Exercise: Give the reported Ki for this compound. C[C@H]1O[C@H](C[N+](C)(C)C)COC1(C)C (relative stereo)
Key: 83.2

Exercise: Give the reported Ki for this compound. C[C@@H]1OC[C@@H](C[N+](C)(C)C)OC1(C)C.[I-] (relative stereo)
Key: 16.6

Exercise: Give the reported Ki for this compound. C[C@H]1OC[C@@H](C[N+](C)(C)C)OC1(C)C.[I-] (relative stereo)
Key: 32.4

Exercise: Give the reported Ki for this compound. C[C@@H]1O[C@H](C[N+](C)(C)C)COC1(C)C.[I-] (relative stereo)
Key: 52.5

Exercise: Give the reported Ki for this compound. "C[C@@H]1COC[C@@H](C[N+](C)(C)C)O1.[I-]"
Key: 67.6

Exercise: Give the reported Ki for this compound. C[C@@H]1CO[C@H](C[N+](C)(C)C)CO1.[I-] (relative stereo)
Key: 93.3

Exercise: Give the reported Ki for this compound. C[C@H]1CO[C@H](C[N+](C)(C)C)CO1.[I-] (relative stereo)
Key: 63.1

###

Would you kindly list pD2 for each of these compounds?
assay: Agonist activity at muscarinic M2 receptor in guinea pig atrium assessed as inhibition of electrically-stimulated muscle contraction; type: functional, Cavia porcellus, Cardiac atrium

Exercise: Give the reported pD2 for this compound. C[C@@H]1OC[C@@H](C[N+](C)(C)C)O[C@H]1C.[I-] (relative stereo)
Key: 4.93

Exercise: Give the reported pD2 for this compound. CC(C[N+](C)(C)C)OC(N)=O.[Cl-] (centres undefined) [BETHANECHOL CHLORIDE]
Key: 5.88

Exercise: Give the reported pD2 for this compound. "CC1(C)COC[C@@H](C[N+](C)(C)C)O1.[I-]"
Key: 5.03

Exercise: Give the reported pD2 for this compound. C[C@H]1OC[C@@H](C[N+](C)(C)C)O[C@@H]1C.[I-] (relative stereo)
Key: 5.01

Exercise: Give the reported pD2 for this compound. "CC1(C)OC[C@@H](C[N+](C)(C)C)OC1(C)C.[I-]"
Key: 5.12

Exercise: Give the reported pD2 for this compound. C[C@@H]1OC[C@@H](C[N+](C)(C)C)O[C@@H]1C.[I-] (relative stereo)
Key: 5.04

Exercise: Give the reported pD2 for this compound. C[C@@H]1O[C@H](C[N+](C)(C)C)CO[C@@H]1C.[I-] (relative stereo)
Key: 5.18

Exercise: Give the reported pD2 for this compound. C[C@@H]1OC[C@@H](C[N+](C)(C)C)OC1(C)C.[I-] (relative stereo)
Key: 4.99

Exercise: Give the reported pD2 for this compound. C[C@@H]1O[C@H](C[N+](C)(C)C)COC1(C)C.[I-] (relative stereo)
Key: 4.92

###

Target or system UniProtKB P20309: recorded Ki listed per item.
Sequence (P20309 whole entry): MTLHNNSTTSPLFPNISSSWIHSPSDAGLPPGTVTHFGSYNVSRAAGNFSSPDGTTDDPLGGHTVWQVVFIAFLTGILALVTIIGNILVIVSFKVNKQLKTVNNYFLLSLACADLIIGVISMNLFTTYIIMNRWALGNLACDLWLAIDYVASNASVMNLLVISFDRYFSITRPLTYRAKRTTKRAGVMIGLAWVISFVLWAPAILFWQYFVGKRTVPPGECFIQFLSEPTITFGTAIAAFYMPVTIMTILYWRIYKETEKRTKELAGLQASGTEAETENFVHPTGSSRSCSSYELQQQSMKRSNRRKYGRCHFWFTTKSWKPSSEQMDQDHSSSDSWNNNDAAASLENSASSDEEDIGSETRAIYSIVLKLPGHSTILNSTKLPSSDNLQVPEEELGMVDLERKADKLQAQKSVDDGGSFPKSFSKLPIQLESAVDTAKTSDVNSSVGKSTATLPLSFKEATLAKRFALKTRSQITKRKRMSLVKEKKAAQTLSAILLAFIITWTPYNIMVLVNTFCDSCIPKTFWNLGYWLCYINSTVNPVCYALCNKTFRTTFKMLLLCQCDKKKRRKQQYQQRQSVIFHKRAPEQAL
Respond numerically; units are µM and should not be typed.

Exercise: Give the reported Ki for this compound. C[C@@H]1OC[C@@H](C[N+](C)(C)C)OC1(C)C.[I-] (relative stereo)
Key: 10.5

Exercise: Give the reported Ki for this compound. C[C@H]1CO[C@H](C[N+](C)(C)C)CO1.[I-] (relative stereo)
Key: 44.7

Exercise: Give the reported Ki for this compound. "CC1(C)CO[C@H](C[N+](C)(C)C)CO1.[I-]"
Key: 77.6

Exercise: Give the reported Ki for this compound. C[C@H]1O[C@H](C[N+](C)(C)C)COC1(C)C (relative stereo)
Key: 46.8

Exercise: Give the reported Ki for this compound. "CC1(C)COC[C@@H](C[N+](C)(C)C)O1.[I-]"
Key: 21.4

Exercise: Give the reported Ki for this compound. C[C@@H]1CO[C@H](C[N+](C)(C)C)CO1.[I-] (relative stereo)
Key: 66.1

Exercise: Give the reported Ki for this compound. C[C@@H]1O[C@H](C[N+](C)(C)C)COC1(C)C.[I-] (relative stereo)
Key: 32.4

Exercise: Give the reported Ki for this compound. "CC1(C)OC[C@@H](C[N+](C)(C)C)OC1(C)C.[I-]"
Key: 40.7

Exercise: Give the reported Ki for this compound. C[C@H]1OC[C@@H](C[N+](C)(C)C)OC1(C)C.[I-] (relative stereo)
Key: 16.2

Exercise: Give the reported Ki for this compound. C[C@@H]1OC[C@@H](C[N+](C)(C)C)O[C@H]1C.[I-] (relative stereo)
Key: 11

###

molecular target: UniProt Q8VH26; assay: Agonist activity at muscarinic M3 receptor in guinea pig ileum assessed as inhibition of electrically-stimulated muscle contraction; format: functional, tissue-based
Sequence (Q8VH26 1-587): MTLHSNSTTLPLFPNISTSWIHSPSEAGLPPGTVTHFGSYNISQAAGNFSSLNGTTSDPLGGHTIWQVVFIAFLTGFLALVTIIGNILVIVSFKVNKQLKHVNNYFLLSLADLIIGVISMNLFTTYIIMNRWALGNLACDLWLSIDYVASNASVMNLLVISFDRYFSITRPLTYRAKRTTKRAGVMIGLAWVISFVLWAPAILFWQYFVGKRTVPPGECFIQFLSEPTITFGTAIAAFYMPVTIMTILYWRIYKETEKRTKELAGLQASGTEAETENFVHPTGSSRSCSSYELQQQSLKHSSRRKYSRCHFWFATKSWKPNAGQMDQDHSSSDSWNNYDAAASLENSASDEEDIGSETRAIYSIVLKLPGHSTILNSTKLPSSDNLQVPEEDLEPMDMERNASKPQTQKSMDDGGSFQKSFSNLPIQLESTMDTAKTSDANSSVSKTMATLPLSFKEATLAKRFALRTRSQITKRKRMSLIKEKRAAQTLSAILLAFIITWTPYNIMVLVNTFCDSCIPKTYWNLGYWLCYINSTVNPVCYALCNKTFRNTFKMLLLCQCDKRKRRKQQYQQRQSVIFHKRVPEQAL
reportedEndpoint: pD2

Exercise: Look up UniProt Q8VH26 data: pD2 of C[C@@H]1O[C@H](C[N+](C)(C)C)COC1(C)C.[I-] (relative stereo) , then report it.
Key: 5.12

Exercise: Look up UniProt Q8VH26 data: pD2 of C[C@H]1OC[C@@H](C[N+](C)(C)C)O[C@@H]1C.[I-] (relative stereo) , then report it.
Key: 6.7

Exercise: Look up UniProt Q8VH26 data: pD2 of C[C@@H]1OC[C@@H](C[N+](C)(C)C)O[C@H]1C.[I-] (relative stereo) , then report it.
Key: 6.95

Exercise: Look up UniProt Q8VH26 data: pD2 of "CC1(C)CO[C@H](C[N+](C)(C)C)CO1.[I-]" , then report it.
Key: 4.91

Exercise: Look up UniProt Q8VH26 data: pD2 of "CC1(C)OC[C@@H](C[N+](C)(C)C)OC1(C)C.[I-]" , then report it.
Key: 5.09

Exercise: Look up UniProt Q8VH26 data: pD2 of C[C@H]1COC[C@@H](C[N+](C)(C)C)O1.[I-] (relative stereo) , then report it.
Key: 7.34

Exercise: Look up UniProt Q8VH26 data: pD2 of C[C@@H]1O[C@H](C[N+](C)(C)C)CO[C@@H]1C.[I-] (relative stereo) , then report it.
Key: 5.27

Exercise: Look up UniProt Q8VH26 data: pD2 of CC(C[N+](C)(C)C)OC(N)=O.[Cl-] (stereo not given) [BETHANECHOL CHLORIDE] , then report it.
Key: 6.16

Exercise: Look up UniProt Q8VH26 data: pD2 of "CC1(C)COC[C@@H](C[N+](C)(C)C)O1.[I-]" , then report it.
Key: 6.94
